System: HOP-62
Experiment: NCI tumour cell line growth inhibition, 48 h
Calls of active or inactive are those of the source. Rule as the data show it: active = GI50 up to about 1.1 µM and inactive = higher.
In this exercise, the only acceptable responses are active, inactive

COc1ccc2c(c1)-c1c(c3cc(OC)ccc3n1CCN(C)C)CC2 | inactive

Task: Recorded call for N=c1c2c(=S)n(-c3ccccc3)c(=S)n(-c3ccccc3)c2nc(SCCN2CCCC2)n1-c1ccccc1 ?
Output: inactive

Task: Recorded call for CCOC(=O)C1C(c2ccc(O)c(OC)c2)c2c(n[nH]c2O)CC1(C)O (stereo not drawn) ?
Output: inactive

Task: Recorded call for O=C(CCc1cc(-c2ccc(F)cc2)n[nH]1)N(Cc1ccccc1)Cc1ccccc1 ?
Output: inactive

Task: Recorded call for COc1cc2[nH]c(=O)c3cc(-c4ccccc4)cc4c(Cl)nc(c1OC)c2c43 ?
Output: inactive

Task: Recorded call for C/C(=N\Nc1nc2ccccc2s1)c1cccnn1 ?
Output: inactive

====

Documented GI50 across a set of compounds
Tested on: CAKI-1
Experiment: NCI tumour cell line growth inhibition, 48 h
The source made the active and inactive calls. Rule as the data show it: active = GI50 up to about 1.1 µM and inactive = higher.

Please review the entries below; each comes with its answer.
CCOC(=O)N1CCC2(CC1)C[C@](Sc1ccccc1)(C(C)=O)[C@H](C)O2 | > 100 µM (inactive)
CCC1OC2C(CC=C(C)C)=C3OC(C)(O)C(C)(CC)C(O)C3=C3OC(=O)C=C1C32 (configuration not stated) | > 100 µM (inactive)
COc1ccc2[nH]c3c4c(cc(-c5ccccc5)c3c2c1)C(=O)N(c1ccccc1)C4=O | 27 µM (inactive)
CC(C)(C)OC(=O)Cn1ncn(NC(=O)Cc2ccccc2)c1=S | > 10 µM (inactive)
CC(C)N(C(=O)c1cccc(C(=O)N(C(C)C)C(C)C)c1)C(C)C | > 100 µM (inactive)

Task: Write down the reported GI50 of O=C(NC(CS)C(=O)O)c1c2ccccc2nc2ccccc12 (configuration not stated) , test system: CAKI-1.
Output: > 100 µM (inactive)

Task: Write down the reported GI50 of COc1cc(/C=C2/C[C@H]3[C@@H]4CC=C5C[C@@H](OC(C)=O)CC[C@]5(C)[C@H]4CC[C@]3(C)NC2=O)cc(OC)c1OC , test system: CAKI-1.
Output: 29.5 µM (inactive)

Task: Write down the reported GI50 of CN1CC[N+](C)=C1c1ccccc1 , test system: CAKI-1.
Output: > 100 µM (inactive)

Task: Write down the reported GI50 of CN1CCN(c2ccc(-n3cc(C(=O)O)c(=O)c4cc(F)c(N5CCN(C)CC5)cc43)nc2)CC1 , test system: CAKI-1.
Output: > 100 µM (inactive)

Task: Write down the reported GI50 of CC1NC(=O)C2Cc3ccc(O)c(c3)Oc3ccc(cc3)C(O)C(C(=O)N2C)N(C)C(=O)C(C)NC(=O)C(Cc2ccc(O)cc2)N(C)C(=O)C(C)NC1=O (configuration not stated) , test system: CAKI-1.
Output: > 100 µM (inactive)

Task: Write down the reported GI50 of Nc1nnc(NC(=O)C2=NS(=O)(=O)c3cc(S(N)(=O)=O)c(Cl)cc3N2)[nH]1 , test system: CAKI-1.
Output: > 100 µM (inactive)

Task: Write down the reported GI50 of Cc1cc(C)c(S(=O)(=O)N2CCCN(S(=O)(=O)c3c(C)cc(C)cc3C)OCCCO2)c(C)c1 , test system: CAKI-1.
Output: > 100 µM (inactive)

====

System: PC-3
Assay: NCI tumour cell line growth inhibition, 48 h
The source made the active and inactive calls. Rule as the data show it: active = GI50 up to about 1.1 µM and inactive = higher.
In this exercise, the only acceptable responses are T = active, F = inactive

Solved entries (count: 10):
C/C(=N\NC(=S)N1CCCCCCCCCCCC1)c1ccccn1 | T
CCOC(=O)N1CCC2(CC1)C[C@](Sc1ccccc1)(C(C)=O)[C@H](C)O2 | F
O=[N+]([O-])/C(C(Cl)=C(Cl)Cl)=C1/OCCS1 | F
Cc1ccc2oc(=O)c3c(O)c4cccc(OC5OC(C)C6O[C@@H](c7ccccc7)OC6C5OC5OC(C)C(O)C(O)C5O)c4c4oc(=O)c1c2c34 (stereo partly drawn) | T
N#C[C@](CO)(NC(=O)OCc1ccccc1)C(F)F | F
CS/C(C#N)=C(\C#N)SC | F
CCN1C(=O)/C(=C/Nc2ccccc2)S/C1=N/Nc1nc(-c2ccc(O)c(O)c2)cs1 | F
C=CCNC(=S)N/N=C1\C(=O)N(CN2CCOCC2)c2ccc([N+](=O)[O-])cc21 | F
CC(=O)c1c(=O)n(-c2ccc(C)cc2)c(O)c2c(N)n[nH]c12 | F
CS[C@]12C(=O)C[C@@]3(C)[C@@H](CC[C@]3(O)C(=O)CO)[C@@H]1CCC1=CC(=O)CC[C@@]12C | F

Task: Recorded call for O=C1C(Cl)=C(NCCc2ccc(O)cc2)C(=O)c2c(O)ccc(O)c21 ?
Output: F

Task: Recorded call for CC(C)NC(=O)OCc1c(COC(=O)NC(C)C)c(-c2ccc[n+](COC(=O)CC(C)(C)C)c2)n2c1CCC2 ?
Output: F

Task: Recorded call for COC1(OC)C[C@H](C)[C@@]23O[C@]24c2cc(O)c5c(c2N[C@H]3C#C/C=C\C#C[C@]14O)C(=O)c1ccccc1C5=O ?
Output: T

Task: Recorded call for c1ccc2sc(SCN(C3CCCCC3)C3CCCCC3)nc2c1 ?
Output: F

Task: Recorded call for O=c1[nH]nc(-c2cccc(Br)c2)[nH]1 ?
Output: F

====

Test system: MOLT-4
Assay: NCI tumour cell line growth inhibition, 48 h
Activity calls are given as the source filed them. Rule as the data show it: active = GI50 up to about 1.1 µM and inactive = higher.
In this exercise, the only acceptable responses are active, inactive

Task: Recorded call for CCCCC(=O)Nc1ccc2cc(C(=O)OC)c(Cl)nc2n1 ?
Output: inactive

Task: Recorded call for COc1ccc(C(C)Nc2cc(OC)c(OC)c(OC)c2)cc1 (stereo not given) ?
Output: inactive

Task: Recorded call for COc1ccc2c(c1)-c1c(c3cc(OC)ccc3n1CCN(C)C)CC2 ?
Output: inactive

Task: Recorded call for O=C1CC[C@@H](S(=O)(=O)c2ccccc2)[C@H](/C=C/c2ccccc2)O1 ?
Output: inactive

Task: Recorded call for Nc1nc2c(c(=O)[nH]1)NC(CO)CN2 (stereo not given) ?
Output: inactive

Task: Recorded call for COC1=C(C(=O)OC(C)(C)C)C23CCCCC2(C(C(=O)OC(C)(C)C)=C(OC)C3C(=O)OC(C)(C)C)C1C(=O)OC(C)(C)C (stereo not given) ?
Output: inactive

Task: Recorded call for Cc1cc(C)c2c(O)cc(-c3cccc(F)c3)nc2n1 ?
Output: active

Task: Recorded call for CC(C)CCC[C@@H](C)C1CCC2[C@@H]3CCC4CC(CCC=C(c5cc(Cl)c(OC(=O)c6ccccc6)c(C(=O)O)c5)c5cc(Cl)c(OC(=O)c6ccccc6)c(C(=O)O)c5)CC[C@]4(C)C3CC[C@@]21C (stereo not given in full) ?
Output: inactive

Task: Recorded call for O=C(Cn1ccnc1[N+](=O)[O-])c1ccccc1 ?
Output: inactive

Task: Recorded call for COc1ccc(/C=C2/N/C(=N\N=C/C(O)C(O)C(O)CO)NC2=O)cc1 (stereo not given) ?
Output: inactive

Task: Recorded call for O=C(/C=C/C(=O)N1CCCC1)N1CCCC1 ?
Output: inactive

Task: Recorded call for Cc1ccc(C)c(NC(=O)CCc2n[nH]c(=S)o2)c1 ?
Output: inactive

Task: Recorded call for COc1ccc(C(F)(F)F)cc1NC(=O)O/N=C(/Cl)C(C)C ?
Output: inactive

Task: Recorded call for Cc1cc([N+](=O)[O-])ccc1Sc1c2ccccc2nc2ccccc12 ?
Output: inactive

Task: Recorded call for CC1=NN(c2nc(N)nc(CC#N)n2)C(C)(C)C1 ?
Output: inactive

====

Documented GI50 across a set of molecules
Test system: COLO 205
Assay: NCI tumour cell line growth inhibition, 48 h
The source made the active and inactive calls. Rule as the data show it: active = GI50 up to about 1.1 µM and inactive = higher.

O=C(O)CCC(=O)OCN1C(=O)C2C3C=CC(C2C1=O)C1C2C(=O)N(COC(=O)CCC(=O)O)C(=O)C2C31 (centres undefined) | > 57.8 µM (inactive)

Task: What GI50 value was documented for this molecule, CCOC(=O)C1=C(C)C2C3C(=O)NC(=O)C3C1(C)C1C(=O)NC(=O)C21 (centres undefined) ?
Output: > 100 µM (inactive)

Task: What GI50 value was documented for this molecule, CCOP(=O)(OCC)C(F)(F)CC1CCCCC1 ?
Output: > 10 µM (inactive)

Task: What GI50 value was documented for this molecule, Cc1cc(C)c(S(=O)(=O)N2CCCN(S(=O)(=O)c3c(C)cc(C)cc3C)OCCCO2)c(C)c1 ?
Output: > 100 µM (inactive)

====

Documented GI50 across a set of molecules
System: SF-539
Experiment: NCI tumour cell line growth inhibition, 48 h
Activity calls are given as the source filed them. Cut-off read from the data, not from the text of the source: active = GI50 up to about 1.1 µM and inactive = higher.

Please review the entries below; each comes with its answer.
COc1c(C)c(C/C=C(\C)CCCCO[Si](C(C)C)(C(C)C)C(C)C)c(OC)c2ccccc12 | > 100 µM (inactive)
CC(C)NC(=O)OCc1c(COC(=O)NC(C)C)c(-c2ccc[n+](COC(=O)CC(C)(C)C)c2)n2c1CCC2 | 84.9 µM (inactive)
Cn1cnc([N+](=O)[O-])c1Sc1nncc2[nH]cnc12 | > 100 µM (inactive)
COc1cc(C(=O)Nc2c3ccccc3nc3ccccc23)cc(OC)c1OC | > 100 µM (inactive)
N=C(N)NS(=O)(=O)c1ccc(NCCc2c3ccccc3nc3ccccc23)cc1 | > 100 µM (inactive)

From here, focus on the item given below.
Task: What GI50 value was documented for this molecule, O=C1CCC(CCc2nc3ccccc3[nH]2)(c2ccccc2)C(=O)N1 (stereo unspecified) ?
Output: > 100 µM (inactive)
